# tested-target: epithelial sodium channel (ENaC) (Homo sapiens, UniProt P37088+P51168+P51170)
# Sequence (P37088 whole entry): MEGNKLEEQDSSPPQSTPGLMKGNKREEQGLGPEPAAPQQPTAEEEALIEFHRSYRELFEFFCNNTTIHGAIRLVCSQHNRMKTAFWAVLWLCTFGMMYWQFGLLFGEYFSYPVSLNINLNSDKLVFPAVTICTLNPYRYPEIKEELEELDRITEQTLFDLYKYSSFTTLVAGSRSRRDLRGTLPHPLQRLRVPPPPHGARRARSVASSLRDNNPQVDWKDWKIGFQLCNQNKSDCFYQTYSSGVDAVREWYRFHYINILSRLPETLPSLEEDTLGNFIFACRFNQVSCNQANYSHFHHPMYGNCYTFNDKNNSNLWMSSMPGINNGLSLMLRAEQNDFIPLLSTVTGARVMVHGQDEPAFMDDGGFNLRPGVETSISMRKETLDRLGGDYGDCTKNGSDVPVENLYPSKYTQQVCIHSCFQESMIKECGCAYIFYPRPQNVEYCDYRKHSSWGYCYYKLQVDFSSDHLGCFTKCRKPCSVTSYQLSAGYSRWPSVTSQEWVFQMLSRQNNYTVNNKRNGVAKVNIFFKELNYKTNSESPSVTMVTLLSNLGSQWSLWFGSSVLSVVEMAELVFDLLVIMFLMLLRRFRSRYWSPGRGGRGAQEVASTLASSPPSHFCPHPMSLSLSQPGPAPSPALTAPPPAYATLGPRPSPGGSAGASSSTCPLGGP
# Sequence (P51168 whole entry): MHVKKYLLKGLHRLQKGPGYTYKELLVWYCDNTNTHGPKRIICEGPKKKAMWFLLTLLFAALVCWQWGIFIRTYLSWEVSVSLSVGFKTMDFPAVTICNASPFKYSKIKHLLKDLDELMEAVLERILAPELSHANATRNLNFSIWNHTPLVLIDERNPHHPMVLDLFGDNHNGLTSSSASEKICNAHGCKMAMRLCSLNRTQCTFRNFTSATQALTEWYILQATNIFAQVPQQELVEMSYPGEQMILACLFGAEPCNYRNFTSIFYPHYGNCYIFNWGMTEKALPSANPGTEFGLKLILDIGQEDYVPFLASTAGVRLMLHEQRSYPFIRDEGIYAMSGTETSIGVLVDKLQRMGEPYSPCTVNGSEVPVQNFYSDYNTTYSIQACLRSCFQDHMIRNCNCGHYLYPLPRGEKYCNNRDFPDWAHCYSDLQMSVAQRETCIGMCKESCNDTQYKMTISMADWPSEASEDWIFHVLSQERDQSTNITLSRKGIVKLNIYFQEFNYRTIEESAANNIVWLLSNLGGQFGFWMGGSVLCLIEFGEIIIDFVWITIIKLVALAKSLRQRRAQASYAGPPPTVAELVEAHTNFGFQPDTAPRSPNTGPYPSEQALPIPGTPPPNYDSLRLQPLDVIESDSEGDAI
# Sequence (P51170 whole entry): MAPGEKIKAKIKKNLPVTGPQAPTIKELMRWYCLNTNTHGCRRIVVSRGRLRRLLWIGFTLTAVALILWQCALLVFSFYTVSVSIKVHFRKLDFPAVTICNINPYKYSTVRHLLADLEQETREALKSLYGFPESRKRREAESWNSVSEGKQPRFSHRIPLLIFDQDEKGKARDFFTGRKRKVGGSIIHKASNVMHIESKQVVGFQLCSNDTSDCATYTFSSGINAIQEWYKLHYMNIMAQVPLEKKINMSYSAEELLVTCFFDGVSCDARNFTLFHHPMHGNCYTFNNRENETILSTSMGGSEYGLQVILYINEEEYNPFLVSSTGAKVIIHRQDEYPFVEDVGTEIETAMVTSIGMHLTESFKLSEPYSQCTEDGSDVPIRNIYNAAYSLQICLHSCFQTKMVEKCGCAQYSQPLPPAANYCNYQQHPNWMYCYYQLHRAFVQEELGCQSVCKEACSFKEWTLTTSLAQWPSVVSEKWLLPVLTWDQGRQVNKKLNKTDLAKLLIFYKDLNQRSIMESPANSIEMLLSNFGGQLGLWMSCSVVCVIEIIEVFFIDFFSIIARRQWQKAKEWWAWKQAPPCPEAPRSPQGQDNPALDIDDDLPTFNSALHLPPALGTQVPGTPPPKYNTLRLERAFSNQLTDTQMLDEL
# assay-text: Short circuit current (ISC) measurements in human bronchial epithelial cells, inhibition of amiloride-sensitive ISC
# settings: inhibition of the amiloride-sensitive ISC; HBECs cultured at air-liquid interface, Ussing chamber, compound added to apical chamber
pIC50: −log10 of the molar value. Structures can show the parent of a compound that is named as a salt.
value-type: pIC50

- compound: "C[N+](CCCc1ccc(OCC(O)CO)cc1)(CCCc1ccc(OCC(O)CO)cc1)CCNC(=O)c1nc(Cl)c(N)nc1N (stereo not shown) [Example 125, trifluoroacetate]"
  pIC50: 6.62

(a) C[N+](C)(CCNC(=O)CCc1ccc(F)cc1)CCNC(=O)c1nc(Cl)c(N)nc1N [Example 38]
(b) C[N+](C)(C)[C@H](CNC(=O)c1nc(Cl)c(N)nc1N)Cc1ccccc1 [Example 13]
(c) C[N+](C)(CCCc1ccc(OCC(=O)O)cc1)CCNC(=O)c1nc(Cl)c(N)nc1N [Example 133, trifluoroacetate]
Order the records by pIC50, with each subsequent value no larger than the one before. Enter labels, ranked according to the request.
b, a, c

----------
# tested-target: epithelial sodium channel (ENaC) (Homo sapiens, UniProt P37088+P51168+P51170)
# assay-text: Short circuit current (ISC) measurements in human bronchial epithelial cells, inhibition of amiloride-sensitive ISC
# settings: inhibition of the amiloride-sensitive ISC; HBECs cultured at air-liquid interface, Ussing chamber, compound added to apical chamber
Structures can show the parent of a compound that is named as a salt.
value-type: IC50 (nM)

Please review the following examples before continuing.
- compound: "C[N+](C)(CCCc1ccc(OCCCc2ccc(OC[C@@H](O)CO)cc2)cc1)CCNC(=O)c1nc(Cl)c(N)nc1N"
  result-units: "nM"
  IC50: 25
- compound: "C[N+](C)(CCCCNC(=O)CCc1ccc(Cl)cc1)CCNC(=O)c1nc(Cl)c(N)nc1N"
  result-units: "nM"
  IC50: 150

(a) C[N+](C)(CCNC(=O)CCc1ccc(Cl)cc1)CCNC(=O)c1nc(Cl)c(N)nc1N
(b) C[N+](C)(CCCNC(=O)Cc1ccc(OCc2ccccc2)cc1)CCNC(=O)c1nc(Cl)c(N)nc1N
(c) CCN(CC)CC[N+](CCCc1ccc(OC)cc1)(CCCc1ccc(OC)cc1)CCNC(=O)c1nc(Cl)c(N)nc1N [Example 19, trifluoroacetate]
(d) C[N+](C)(CCCc1ccc(OCC(O)CO)cc1)CCNC(=O)c1nc(Cl)c(N)nc1N (stereo not shown)
(e) C[N+](C)(CCNC(=O)c1nc(Cl)c(N)nc1N)CCc1ccccc1 [Example 129, trifluoroacetate]
Please list these in order of increasing IC50. Thank you! Show the ranking through the labels, in the order asked for.
c, a, b, e, d
(c: 20 nM, a: 150 nM, b: 240 nM, e: 1140 nM, d: 2270 nM)
